Tested on: COLO 205 colon
Quantity Kind: GI50

The following compounds have reported results that may help.
Compound	GI50
CC(=O)Oc1ccc(Nc2c3ccccc3nc3ccccc23)cc1	861 nM
COc1ccc(CNc2c3ccccc3nc3ccccc23)cc1OC	1320 nM
O=C(Nc1cccc(Cl)c1Cl)c1cccc(NC2=C(Cl)C(=O)N(Cc3ccccc3)C2=O)c1	> 100000 nM
COc1ccc(C2C(C#N)=C(N)OC3=C2COc2ccc(F)cc23)cc1OC (stereo not given)	19100 nM
O=C(Nc1ccc(Cl)cc1F)c1cc(Br)ccc1O	7650 nM
O=C(N/N=C\c1cc(Br)ccc1O)c1ccncc1	1230 nM
CN1CCc2c(Sc3ccc(C(=O)NO)cc3)c3ccccc3n2C1	1920 nM
Nc1ccncc1/C=C1/C(=O)Nc2ccccc21	19800 nM

Please report the recorded GI50 for COc1ccc(-n2cc(-c3ccc(Cl)c(Cl)c3)nc2SCc2cccc(C#N)c2)cc1 .
51700 nM

Please report the recorded GI50 for CCN(CC)CCOc1ccc(/C(=C(\C)c2ccc(F)c(OC)c2)c2ccc(Cl)cc2)cc1 .
1820 nM

* * *

Test system: NCI-H522 lung
Measurement Notes: NCI tumour cell line growth inhibition, 48 h
Quantity Kind: TGI (µM)
Express it in µM; write the number only.

The following molecules have reported results that may help.
Structure Notation	Result Unit	TGI
O=c1[nH]c2cc(Cl)ccc2n1C1CCN(CCCC(c2ccc(F)cc2)c2ccc(F)cc2)CC1	µM	3.64
CC(=O)c1csc2c1C(=O)c1scc(C(C)=O)c1C2=O	µM	1.75

Now take the following molecule into account.
Please report the recorded TGI for c1ccc2c3ccn4cc5c(cc4c-3nc2c1)CCCC5 .
5.75

* * *

System: NCI-H226 lung
Measurement Notes: NCI tumour cell line growth inhibition, 48 h
Quantity Kind: TGI

The following compounds have reported results that may help.
Compound	TGI
CC(C)(C)N1CC2(CCCCC2)C1=O	> 100 µM
COc1cc2c(cc1OC)C13CCN4CC5=CCOC6CC(=O)N2C1C6C5CC43O (stereo unspecified)	> 100 µM
NC(N)=N/N=C/c1cc(Cl)cc(Cl)c1O	> 100 µM
Cc1cc(NC(=O)c2ccc(C)c(Nc3nccc(-c4cccnc4)n3)c2)cc(-n2cnc(C)c2)c1	5.39 µM
CC(=O)Oc1ccc(Nc2c3ccccc3nc3ccccc23)cc1	3.08 µM

Missing value: TGI, NCI-H226 lung, entry O=c1[nH]c2cc(Cl)ccc2n1C1CCN(CCCC(c2ccc(F)cc2)c2ccc(F)cc2)CC1 . Fill in?
3.53 µM

Missing value: TGI, NCI-H226 lung, entry CCOC(=O)C(N)CSC(=O)NC (stereo unspecified) . Fill in?
681 µM

Missing value: TGI, NCI-H226 lung, entry NS(=O)(=O)c1ccc(-n2c(-c3cccs3)nc3ccc(I)cc3c2=O)cc1 . Fill in?
87.3 µM

Missing value: TGI, NCI-H226 lung, entry CCOC(=O)N1CCN(C(=O)c2ccc(C(F)(F)F)nc2Nc2cc(Cl)ccc2C)CC1 . Fill in?
68.6 µM

Missing value: TGI, NCI-H226 lung, entry CCN1C(=O)N(CC)C2C1NC(=S)N2/N=C/C=C/c1cccs1 (stereo unspecified) . Fill in?
> 28.3 µM

Missing value: TGI, NCI-H226 lung, entry O=C(Nc1cccc(Cl)c1Cl)c1cccc(NC2=C(Cl)C(=O)N(Cc3ccccc3)C2=O)c1 . Fill in?
> 100 µM

* * *

System: UO-31 renal
Measurement Notes: NCI tumour cell line growth inhibition, 48 h
Reported TGI by item:

Compound	Target Or Test System	TGI
CN(C)Cc1c[nH]c2c1C(=O)c1c(c(O)c3ccccc3c1O)C2=O	UO-31 renal	29.5 µM

Please report the recorded TGI for O=C(c1ccccc1)c1c(-c2ccccc2)[nH]n(-c2ccc([N+](=O)[O-])cc2)c(=O)c1=O .
> 100 µM

Please report the recorded TGI for COc1cc2cn3c4ccc(O)cc4[nH]c(=O)c3c2cc1OC .
1.64 µM

Please report the recorded TGI for NS(=O)(=O)c1ccc(-n2c(-c3cccs3)nc3ccc(I)cc3c2=O)cc1 .
42.6 µM

Please report the recorded TGI for CC(=O)Oc1ccccc1-c1cc2ccccc2oc1=O .
> 100 µM

Please report the recorded TGI for CCOC(=O)CCc1c(C)c2c(OC(C)=O)cc(OC(C)=O)cc2oc1=O .
> 100 µM

Please report the recorded TGI for Cc1cn(C2CC(ON3C(=O)c4ccccc4C3=O)C(CO)O2)c(=O)[nH]c1=O (centres undefined) .
> 10 µM

Please report the recorded TGI for CCN(CC)/C(Cl)=C(Cl)\C(=C1\Nc2ccc(OC)cc21)[N+](=O)[O-] .
> 100 µM

Please report the recorded TGI for COC(=O)[C@@H](NC(=O)[C@@H](OC)[C@@H]1Cc2cc3cc(OC4CC(OC5CC(O)C(O)C(C)O5)C(O)C(C)O4)c(C)c(O)c3c(O)c2C(=O)[C@H]1OC1CC(OC2CC(OC3CC(C)(O)C(O)C(C)O3)C(O)C(C)O2)C(O)C(C)O1)C(C)C (some centres undefined) .
4.4 µM

* * *

Reported TGI by item:
Test system: SW-620 colon
Measurement Notes: NCI tumour cell line growth inhibition, 48 h

The following compounds have reported results that may help.
Compound	Target Or Test System	Result
C#C[C@]1(O)CC[C@H]2[C@@H]3CC=C4c5sc(Nc6ccccc6)nc5CC[C@]4(C)[C@H]3CC[C@@]21C	SW-620 colon	5.85 µM
CC1(C#N)CC(C)(C)C(/C=C2/CC(C)(C)C(/C=C3/OC(=N)CC3(C)C)=N2)=N1 (stereo not given)	SW-620 colon	> 100 µM
O=C(CN1CCCCC1)N1CCc2c([nH]c3ccccc23)C1c1cccnc1 (stereo not given)	SW-620 colon	> 100 µM
COc1cc(/C=C2\C(=O)Nc3ccc(F)cc32)cc(OC)c1OC	SW-620 colon	> 100 µM

Please report the recorded TGI for C=CCN1C[C@H](C)N([C@H](c2ccc(C(=O)N(CC)CCO)cc2)c2cccc(OC)c2)C[C@H]1C .
> 100 µM

* * *

System: HCT-15 colon
Measurement Notes: NCI tumour cell line growth inhibition, 48 h
Quantity Kind: TGI

Compound	Result
OCCCCC#Cc1ccccc1C#Cc1cccc(O)c1	27 µM
CC(=O)O[C@@H]1C[C@]2(C(C)C)O[C@@]1(C)[C@@H]1CCC(C)=C1[C@@H]2OC(=O)/C=C/c1ccccc1	> 100 µM
CCOC(=O)c1[nH]c(COC(C)=O)c(CCCOC(C)=O)c1CCCOC(C)=O	> 100 µM
O=C(Nc1ccc([N+](=O)[O-])cc1)C1C(=O)C(=O)N(c2ccc([N+](=O)[O-])cc2)C1=O (centres undefined)	> 100 µM
NC(CCC(=O)NC(CSC(=O)N(O)c1ccc(Br)cc1)C(=O)NCC(=O)O)C(=O)O (centres undefined)	> 100 µM
Cc1ccc(Nc2nc(N)c(C(=O)c3ccc(C#N)cc3)s2)cc1	> 100 µM

Missing value: TGI, HCT-15 colon, entry CN(C)Cc1c[nH]c2c1C(=O)c1c(c(O)c3ccccc3c1O)C2=O . Fill in?
16.2 µM

Missing value: TGI, HCT-15 colon, entry COc1ccc2c3c1O[C@H]1C(O)CCC4(O)[C@@H](C2)NCC[C@]314 (some centres undefined) . Fill in?
> 100 µM

Missing value: TGI, HCT-15 colon, entry O=C(O)c1c(-c2nccc3ccccc23)[nH]c(-c2ccccc2)c1S(=O)(=O)O . Fill in?
> 100 µM

* * *

System: UACC-257 melanoma
Mark one answer only. Choices: active, inactive

Use these answered entries as a reference point.
Compound	Label Class
COc1ccc(C2C(C#N)=C(N)OC3=C2COc2ccc(F)cc23)cc1OC (configuration not stated)	inactive
CCN(CC)CCOc1ccc(/C(=C(\C)c2ccc(F)c(OC)c2)c2ccc(Cl)cc2)cc1	inactive
CC(=O)OCC1OC([S-])C(OC(C)=O)C(OC(C)=O)C1OC(C)=O.CC[PH+](CC)CC.CC[PH+](CC)CC.[Au].[Au] (configuration not stated)	active

Short answer needed: outcome of this test for Cc1c[n+](Cc2ccc3ccccc3c2)cn1Cc1ccc2ccccc2c1 ?
inactive

Short answer needed: outcome of this test for C#C[C@]1(O)CC[C@H]2[C@@H]3CC=C4c5sc(Nc6ccccc6)nc5CC[C@]4(C)[C@H]3CC[C@@]21C ?
inactive

* * *

Test system: KM12 colon
Measurement Notes: NCI tumour cell line growth inhibition, 48 h; in the data active = GI50 below about 0.43 µM; inactive = the rest
Mark one answer only. Choices: true (active), false (inactive)

Molecule	Label Class
CCN1C(=O)N(CC)C2C1NC(=S)N2/N=C/C=C/c1cccs1 (stereo unspecified)	true
COc1ccc(-n2cc(-c3ccc(Cl)c(Cl)c3)nc2SCc2cccc(C#N)c2)cc1	false
Cc1[nH][nH]c(=O)c1C=Nc1ccc(-c2nc3ccccc3[nH]2)cc1	false
Cc1n(Cc2ccc3ccccc3c2)cc[n+]1Cc1ccc2ccccc2c1	false
COc1ccc(C2C(C#N)=C(N)OC3=C2COc2ccc(F)cc23)cc1OC (stereo unspecified)	false

Short answer needed: outcome of this test for Nc1nc(Br)nc2c1ncn2C1CC(O)C(CO)O1 (stereo unspecified) ?
false
